# Tested on: MCF7 TP53 KO 5.6 pool
# Procedure Text: Drug screening, resazurin, TP53 KO 5.6 pool
# Type: cell-based, Human
# Assay Context: ten-day drug treatment, 156.25 nM to 10 μM, resazurin fluorescence
Where a name gives a salt, the structure may show the parent alone.
Mark MET for TP53 KO 5.6 pool (AUC) under 5, NOT MET if at or over.

[
  {
    "Molecule": "CO[C@H]1C(=O)[C@]2(C)[C@@H](OC)C[C@H]3OC[C@@]3(OC(C)=O)[C@H]2[C@H](OC(=O)c2ccccc2)[C@]2(O)C[C@H](OC(=O)[C@H](O)[C@@H](NC(=O)OC(C)(C)C)c3ccccc3)C(C)=C1C2(C)C",
    "Group Label": "MET"
  },
  {
    "Molecule": "NCC(=O)CCC(=O)O",
    "Group Label": "NOT MET"
  },
  {
    "Molecule": "Nc1nc2[nH]cc(CCc3ccc(C(=O)N[C@@H](CCC(=O)O)C(=O)O)cc3)c2c(=O)[nH]1 [Pemetrexed Disodium Salt Heptahydrate]",
    "Group Label": "MET"
  },
  {
    "Molecule": "CC(=O)O[C@@]12CO[C@@H]1C[C@H](O)[C@@]1(C)C(=O)[C@H](O)C3=C(C)[C@@H](OC(=O)[C@H](O)[C@@H](NC(=O)OC(C)(C)C)c4ccccc4)C[C@@](O)([C@@H](OC(=O)c4ccccc4)[C@H]21)C3(C)C",
    "Group Label": "MET"
  },
  {
    "Molecule": "CN1CCN(C(=O)c2ccc3cc(CCNc4ncnc5ccc(C#N)cc45)ccc3c2)CC1",
    "Group Label": "NOT MET"
  }
]

[ask] I wonder whether O=C(c1ccc(F)c(F)c1Nc1ccc(I)cc1F)N1CC(O)([C@@H]2CCCCN2)C1 has TP53 KO 5.6 pool (AUC) below 5. Can you tell?
[reply] NOT MET

[ask] I wonder whether O=c1[nH]cc(F)c(=O)[nH]1 has TP53 KO 5.6 pool (AUC) below 5. Can you tell?
[reply] MET

[ask] I wonder whether CNC(=O)c1ccccc1Sc1ccc2c(/C=C/c3ccccn3)n[nH]c2c1 has TP53 KO 5.6 pool (AUC) below 5. Can you tell?
[reply] MET

[ask] I wonder whether O=P(O)(O)C(O)(Cn1ccnc1)P(=O)(O)O has TP53 KO 5.6 pool (AUC) below 5. Can you tell?
[reply] NOT MET

[ask] I wonder whether O=C(CCCCCCC(=O)Nc1ccccc1)NO has TP53 KO 5.6 pool (AUC) below 5. Can you tell?
[reply] MET
